- experimental.system: T1, recombinant his-tag human LAG3-ECD protein (human, UniProt P18627 23-450)
- T1 construct: extracellular domain; not shown: his tag
- T1 sequence (looked up): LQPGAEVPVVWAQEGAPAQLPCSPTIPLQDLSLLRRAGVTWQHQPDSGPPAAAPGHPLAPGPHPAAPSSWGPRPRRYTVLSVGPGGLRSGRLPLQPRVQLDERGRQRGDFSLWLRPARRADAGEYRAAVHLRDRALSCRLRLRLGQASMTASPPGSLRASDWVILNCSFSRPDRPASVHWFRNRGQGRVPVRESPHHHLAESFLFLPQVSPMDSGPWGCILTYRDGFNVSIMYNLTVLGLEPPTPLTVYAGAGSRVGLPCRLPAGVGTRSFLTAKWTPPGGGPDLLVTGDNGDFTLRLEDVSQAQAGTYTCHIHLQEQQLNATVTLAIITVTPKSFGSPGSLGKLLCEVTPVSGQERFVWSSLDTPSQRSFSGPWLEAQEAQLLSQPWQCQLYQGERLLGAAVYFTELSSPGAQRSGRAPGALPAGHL
- assay.details: SPR Biacore T200, capture method as Example 2.7
experimental.endpoint: Kd (nM)
Write the answer as a number in nM, unit excluded.

147H 3421 (antibody, V domains shown) VH: EVQLVQSGAEVKKPGASVKVSCKASGYTFTNYWLGWIKQAPGQGLEWIGDIYPGGDYINYNEKFKGKATLTADTSISTAYMELSRLRSDDTAVYYCARPNLPKDHWGQGTTVTVSS VL: DIVMTQSPLSLPVTPGEPASISCRSSKSLLHSNAITYLYWYLQKPGQSPQLLIYQVSNLASGVPDRFSGSGSGTDFTLKISRVEAEDVGVYYCAQNLELPWTFGGGTKVEIK	8.1

--- query ---
Given the entry 147H 3811 (antibody, V domains shown) VH: EVQLVQSGAEVKKPGASVKVSCKASGYLFTNYWLGWIKQAPGQGLEWIGDIYPGGDYIVYNEKFKGKATLTADTSISTAYMELSRLRSDDTAVYYCARPNLPKDHWGQGTTVTVSS VL: DIVMTQSPLSLPVTPGEPASISCRSSKSLLHSNAITYLYWYLQKPGQSPQLLIYQVSNLATGVPDRFSGSGSGTDFTLKISRVEAEDVGVYYCGQYLELPWTFGGGTKVEIK , report its measured Kd.
0.59
